biological target: T1, soluble human FcRn (shFcRn) (human, UniProt P55899 24-297; P61769 21-119, biotinylated with Sulfo-NHS-LC-Biotin in the ELISA; amine-coupled to a CM5 chip in SPR); assay: competition ELISA vs human IgG
T1 construct: also called biotinylated shFcRn
T1 sequence (P55899 24-297 limits assumed, chain 1 of 2): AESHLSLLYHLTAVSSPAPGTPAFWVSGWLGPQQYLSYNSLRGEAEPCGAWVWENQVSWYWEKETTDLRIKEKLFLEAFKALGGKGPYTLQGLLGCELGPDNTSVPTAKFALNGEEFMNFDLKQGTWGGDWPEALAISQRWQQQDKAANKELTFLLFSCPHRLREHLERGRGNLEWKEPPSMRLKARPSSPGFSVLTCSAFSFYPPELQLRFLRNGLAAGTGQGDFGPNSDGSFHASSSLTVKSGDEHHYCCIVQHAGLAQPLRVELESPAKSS
T1 sequence (P61769 21-119 limits assumed, chain 2 of 2): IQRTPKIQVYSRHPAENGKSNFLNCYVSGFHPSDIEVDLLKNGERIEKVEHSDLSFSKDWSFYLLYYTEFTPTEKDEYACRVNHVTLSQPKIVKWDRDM
Give IC50 for every item shown.
The response must be a number in µM with no trailing unit.

Prompt: Endpoint output: IC50 of QRFXTGHFGXXYPCNGP (Pen4; Sar10; NMeLeu11; disulfide; C-terminal amide) [Peptide No. 187] . Value?
Response: 0.42

Prompt: Could you tell me which IC50 is on file for RFXTGHFGXXYPC (Pen3; Sar9; NMeLeu10; disulfide; C-terminal amide) [Peptide No. 235] ?
Response: 0.49

Prompt: Returns the measured IC50 for the input binder. Input: QRXXTGHFGGLYPCNGP (D-Phe3; Pen4; disulfide; C-terminal amide) [Peptide No. 96]
Response: 11.4

Prompt: What IC50 value was documented for this binder, RFXTGRFGXXYPC (Pen3; Sar9; NMeLeu10; disulfide; C-terminal amide) [Peptide No. 256] ?
Response: 5.5

Prompt: Name the recorded IC50 for RFXTGHFGXXYPC (Pen3; Sar9; NMeLeu10; intrachain disulfide; N-termini joined by Glu (from Boc-Glu(OH)-OH) with a free amine; C-terminal amide) [Peptide No. 286] .
Response: 0.0056
